measured target: rat µ opioid receptor (rat, UniProt P33535 1-398)
Sequence (P33535 whole entry): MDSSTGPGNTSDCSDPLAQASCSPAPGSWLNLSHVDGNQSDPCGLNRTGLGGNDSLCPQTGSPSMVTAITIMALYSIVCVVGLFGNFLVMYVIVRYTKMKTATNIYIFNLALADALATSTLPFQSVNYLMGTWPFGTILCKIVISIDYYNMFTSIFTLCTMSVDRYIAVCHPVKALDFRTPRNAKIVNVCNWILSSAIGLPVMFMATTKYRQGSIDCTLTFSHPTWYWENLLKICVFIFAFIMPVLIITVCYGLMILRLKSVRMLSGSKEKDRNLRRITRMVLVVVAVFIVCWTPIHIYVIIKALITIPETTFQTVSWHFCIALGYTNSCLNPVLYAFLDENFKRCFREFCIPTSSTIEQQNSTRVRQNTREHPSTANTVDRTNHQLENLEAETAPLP
protocol text: cell-based or functional assay
Square brackets hold non-standard residues; d marks the D form. Primed or numbered codes have the meaning given here. Ends that are not written are not given here. * marks the point of attachment. Glc = O-glucosyl on Ser side chain (Ser(OGlu)/Ser(OGlc)); NH(3,5-(CF3)2-benzyl) = FC(F)(F)c1cc(CN*)cc(C(F)(F)F)c1; NMeBn(3,5-(CF3)2) = CN(Cc1cc(C(F)(F)F)cc(C(F)(F)F)c1)*; OBzl(3,5-(CF3)2) = FC(F)(F)c1cc(CO*)cc(C(F)(F)F)c1; Glc″ = glucosyl on the serine side-chain oxygen; NH‑Bn(CF3)2 = C-terminal Bn(CF3)2 amide; Dmt = Cc1cc(O)cc(C)c1C[C@H](N)C(=O)O; Nle = CCCC[C@H](N)C(=O)O; NHBn = c1ccc(CN*)cc1
# if value of GTP binding rMOR EC50 reaches 60 nM, tag fulfilled; if it stays below, tag not fulfilled

See these solved cases before continuing.
binder="Y[dA]GFFPLW-{NMeBn(3,5-(CF3)2)} [TyrDAlaGlyPhePheProLeuTrpNMeBn(CF3)2 (TY017)]" answer_label=fulfilled
binder="[Dmt][dA]GFMPLW-{NH(3,5-(CF3)2-benzyl)} [DmtDAlaGlyPheMetProLeuTrpNHBn(CF3)2 (TY032)]" answer_label=fulfilled
binder="Y[dA]GF[Nle]S(Glc″)LW-{NH‑Bn(CF3)2} [TyrDAlaGlyPheNleSer(OGlu)LeuTrpNHBn(CF3)2 (TY044)]" answer_label=fulfilled
binder="Y[dA]GFGPLW-{OBzl(3,5-(CF3)2)} [TyrDAlaGlyPheGlyProLeuTrpOBn(CF3)2 (TY006)]" answer_label="not fulfilled"
binder="[Dmt][dA]GF[Nle]PS(Glc)W-{NH‑Bn(CF3)2} [DmtDAlaGlyPheNleProSer(OGlu)TrpNHBn(CF3)2 (TY056)]" answer_label="not fulfilled"

Tell me whether GTP binding rMOR EC50 is at least 60 nM here: [Dmt][dA]GFMPLW-NHBn [DmtDAlaGlyPheMetProLeuTrpNHBn (TY034)]
not fulfilled

Every entry's value here was drawn from patent US8026218.
